System: acute myeloid leukemia cell line HL60
Assay: Cell viability, trypan blue exclusion, HL-60
Assay type: cell-based
Conditions: Homo sapiens, 72 hours incubation, trypan blue exclusion, read-out: Activity (IC50) HL-60
Recorded Metric: pIC50
pIC50 is defined as minus the log10 of a concentration measured in mol/L.

Prompt: I'd like to know its pIC50. The compound in question is C=CC(C)(C)c1ccc2c(c1)OCO2
Completion: 3.17

Prompt: I'd like to know its pIC50. The compound in question is C=CCc1ccc(O)c(O)c1
Completion: 4.60

Prompt: I'd like to know its pIC50. The compound in question is C=CCc1cc(O)c(O)cc1CC=C
Completion: 4.60

Prompt: I'd like to know its pIC50. The compound in question is C=CCc1ccc(OC(C)=O)c(OC(C)=O)c1 [Compound 7, 4-allyl-1,2-phenylene diacetate]
Completion: 4.82

Prompt: I'd like to know its pIC50. The compound in question is C=CCc1ccc(O)c(O)c1CC=C
Completion: 4.22

Prompt: I'd like to know its pIC50. The compound in question is CC(C)(C#N)c1ccc(O)c(O)c1
Completion: 3.96

Prompt: I'd like to know its pIC50. The compound in question is C=CCc1cccc(O)c1O
Completion: 4.70

Prompt: I'd like to know its pIC50. The compound in question is CC(C)(C=NO)c1ccc(O)c(O)c1
Completion: 4.19

Prompt: I'd like to know its pIC50. The compound in question is C=CCc1cccc(OC(C)=O)c1OC(C)=O [Compound 19, 3-allyl-1,2-phenylene diacetate]
Completion: 4.82

Prompt: I'd like to know its pIC50. The compound in question is CC(=O)ON=CC(C)(C)c1ccc(OC(C)=O)c(OC(C)=O)c1
Completion: 3.72

Prompt: I'd like to know its pIC50. The compound in question is CCOC(=O)/C=C/C(C)(C)c1ccc(O)c(O)c1
Completion: 4.30

====

System: breast cancer cell line MCF-7
Assay: Cell viability, trypan blue exclusion, MCF-7
Format: cell-based, human
Details: Homo sapiens, MCF7, 72 h, 72 hours incubation
Would you mind telling me the reported pIC50 of each entry?
pIC50 is defined as minus the log10 of a concentration measured in mol/L.

Prompt: I'd like to know its pIC50. The compound in question is CC(C)(C#N)c1ccc(O)c(O)c1 [Compound 10]
Completion: 4.00

Prompt: I'd like to know its pIC50. The compound in question is CC(=O)ON=CC(C)(C)c1ccc(OC(C)=O)c(OC(C)=O)c1 [Compound 12]
Completion: 3.70

Prompt: I'd like to know its pIC50. The compound in question is C=CCc1cccc(OC(C)=O)c1OC(C)=O [Compound 19, 3-allyl-1,2-phenylene diacetate]
Completion: 4.70

Prompt: I'd like to know its pIC50. The compound in question is CC(C)(C=NO)c1ccc(O)c(O)c1 [Compound 9]
Completion: 4.07

====

Tested on: chronic myeloid leukemia cell line K562
Test: Cell viability, trypan blue exclusion, K562
Format: cell-based
Details: Homo sapiens, K562; 72 hours incubation, trypan blue exclusion; read-out: Activity (IC50) K562
Recorded Metric: pIC50
pIC50 is defined as minus the log10 of a concentration measured in mol/L.

Prompt: I'd like to know its pIC50. The compound in question is CC(C)(C=NO)c1ccc(O)c(O)c1
Completion: 4.19

Prompt: I'd like to know its pIC50. The compound in question is CC(C)(C#N)c1ccc(O)c(O)c1
Completion: 3.95

Prompt: I'd like to know its pIC50. The compound in question is C=CCc1ccc(OC(C)=O)c(OC(C)=O)c1 [Compound 7, 4-allyl-1,2-phenylene diacetate]
Completion: 4.89

Prompt: I'd like to know its pIC50. The compound in question is C=CCc1cccc(OC(C)=O)c1OC(C)=O [Compound 19, 3-allyl-1,2-phenylene diacetate]
Completion: 4.89

Prompt: I'd like to know its pIC50. The compound in question is C=CCc1cccc(O)c1O
Completion: 4.70

Prompt: I'd like to know its pIC50. The compound in question is CC(=O)ON=CC(C)(C)c1ccc(OC(C)=O)c(OC(C)=O)c1
Completion: 3.71

Prompt: I'd like to know its pIC50. The compound in question is C=CC(C)(C)c1ccc2c(c1)OCO2
Completion: 3.18

Prompt: I'd like to know its pIC50. The compound in question is C=CCc1ccc(O)c(O)c1CC=C
Completion: 4.28

Prompt: I'd like to know its pIC50. The compound in question is CCOC(=O)/C=C/C(C)(C)c1ccc(O)c(O)c1
Completion: 4.30

Prompt: I'd like to know its pIC50. The compound in question is C=CCc1ccc(O)c(O)c1
Completion: 4.70

Prompt: I'd like to know its pIC50. The compound in question is C=CCc1cc(O)c(O)cc1CC=C
Completion: 4.89
